Ref: patent US9174974B2

biological target: human FVIIa (Homo sapiens (Human)); test: FVIIa Ki (37° C.), FVIIa-Xase assay; format: biochemical; conditions: selectivity ratio, tissue kallikrein (HK1) vs FVIIa
observed property: Ki(HK1)/Ki(FVIIa)

[a] Cc1cc2ccc1[C@@H](C)COC(=O)Nc1cc(F)c(OC(CF)CF)c(c1)CN(C)C(=O)[C@@H]2Nc1ccc2c(N)nccc2c1.O=C(O)C(F)(F)F [Example 32]
[b] COC[C@H](C)Oc1c(F)cc2cc1CN(C)C(=O)[C@H](Nc1ccc3c(N)nccc3c1)c1ccc(c(C)c1)[C@@H](C)COC(=O)N2.O=C(O)C(F)(F)F [Example 37]
[in] Could you tell me which of these two has the smaller Ki(HK1)/Ki(FVIIa) figure? First: a Second: b // respond with label for picked entry
[out] a
(a: 273, b: 1357)

====

biological target: human FVIIa (Homo sapiens (Human), UniProt P08709); test: FVIIa Ki (37° C.), FVIIa-Xase assay; type: biochemical; conditions: read-out: FVIIa Ki, nM 37° C.
Sequence (P08709 61-212): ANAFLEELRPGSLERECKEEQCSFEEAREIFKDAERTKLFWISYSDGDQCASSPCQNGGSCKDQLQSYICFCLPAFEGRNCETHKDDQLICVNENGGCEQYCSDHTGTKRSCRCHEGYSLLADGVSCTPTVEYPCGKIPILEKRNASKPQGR
Sequence (P08709 213-466): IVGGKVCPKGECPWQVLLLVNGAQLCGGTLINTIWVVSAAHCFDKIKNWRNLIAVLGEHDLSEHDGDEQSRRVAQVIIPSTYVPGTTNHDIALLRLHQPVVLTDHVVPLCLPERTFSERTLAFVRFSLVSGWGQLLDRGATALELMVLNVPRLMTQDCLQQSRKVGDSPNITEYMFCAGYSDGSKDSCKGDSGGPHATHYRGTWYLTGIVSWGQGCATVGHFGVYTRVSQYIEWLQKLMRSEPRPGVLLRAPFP
Sequence (P13726 33-295 partner): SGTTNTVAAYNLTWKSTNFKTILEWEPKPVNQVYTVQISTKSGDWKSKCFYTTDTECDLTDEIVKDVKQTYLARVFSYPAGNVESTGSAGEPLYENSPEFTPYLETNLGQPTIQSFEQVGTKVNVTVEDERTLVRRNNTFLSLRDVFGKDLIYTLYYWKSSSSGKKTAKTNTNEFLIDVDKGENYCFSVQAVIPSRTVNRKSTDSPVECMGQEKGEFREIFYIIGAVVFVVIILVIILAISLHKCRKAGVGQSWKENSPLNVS
observed property: Ki (nM)

[1] CCS(=O)(=O)c1ccc2cc1CN(C)C(=O)[C@H](Nc1ccc3c(N)ncc(F)c3c1)c1ccc(c(C)c1)[C@@H](C)COC(=O)N2.O=C(O)C(F)(F)F
[2] COc1cc2c(F)cc1[C@@H](C)COC(=O)Nc1ccc(S(=O)(=O)C3CC3)c(c1)CN(C)C(=O)[C@@H]2Nc1cc2ccnc(N)c2cc1F.O=C(O)C(F)(F)F
[3] CCS(=O)(=O)c1ccc2cc1CNC(=O)[C@H](Nc1ccc3c(N)nccc3c1)c1ccc(cc1)CCOC(=O)N2 [Comparator 2, reference compound]
[in] Sort the entries above numerically by Ki, high end first. Kindly provide the labels arranged according to the requested ordering.
[out] 3, 1, 2
(3: 11 nM, 1: 2.3 nM, 2: 0.25 nM)

====

target: human FVIIa (Homo sapiens (Human), UniProt P08709); test: FVIIa Ki (37° C.), FVIIa-Xase assay; format: biochemical; conditions: selectivity ratio, tissue kallikrein (HK1) vs FVIIa
observed property: Ki(HK1)/Ki(FVIIa)

Example molecules with recorded Ki(HK1)/Ki(FVIIa):
[
  {
    "molecule": "COCCCOc1c(F)cc2cc1CN(C)C(=O)[C@H](Nc1ccc3c(N)nccc3c1)c1ccc(c(C)c1)[C@@H](C)COC(=O)N2.O=C(O)C(F)(F)F",
    "Ki(HK1)/Ki(FVIIa)": 1450
  },
  {
    "molecule": "CC(C)S(=O)(=O)c1ccc2cc1CN(C)C(=O)[C@H](Nc1cc(F)c3c(N)nccc3c1)c1ccc(cc1)CCOC(=O)N2 [Comparator 1, reference compound]",
    "Ki(HK1)/Ki(FVIIa)": 87
  },
  {
    "molecule": "Cc1cc2cc(C)c1C(F)(F)COC(=O)Nc1ccc(S(=O)(=O)C3CC3)c(c1)CN(C)C(=O)[C@@H]2Nc1ccc2c(N)nccc2c1.O=C(O)C(F)(F)F",
    "Ki(HK1)/Ki(FVIIa)": 145
  },
  {
    "molecule": "Cc1cc2ccc1[C@@H](C)COC(=O)Nc1cc(F)c(OCC3(C#N)CC3)c(c1)CN(C)C(=O)[C@@H]2Nc1ccc2c(N)nccc2c1.O=C(O)C(F)(F)F",
    "Ki(HK1)/Ki(FVIIa)": 1114
  },
  {
    "molecule": "Cc1cc2ccc1[C@@H](C)COC(=O)Nc1cc(F)c(O[C@H](C)CO)c(c1)CN(C)C(=O)[C@@H]2Nc1ccc2c(N)nccc2c1.O=C(O)C(F)(F)F",
    "Ki(HK1)/Ki(FVIIa)": 412
  }
]

[1] Cc1cc2ccc1[C@@H](C)COC(=O)Nc1cc(F)c(O[C@H]3CCOC3)c(c1)CN(C)C(=O)C2Nc1ccc2c(N)nccc2c1.O=C(O)C(F)(F)F (some centres unmarked)
[2] Cc1cc2ccc1[C@@H](C)COC(=O)Nc1ccc(C3(c4nnn[nH]4)CC3)c(c1)CN(C)C(=O)[C@@H]2Nc1ccc2c(N)nccc2c1.O=C(O)C(F)(F)F
[in] # argmax over Ki(HK1)/Ki(FVIIa) for candidates 1 and 2 // respond with label for picked entry
[out] 1

[a] Cc1cc2ccc1[C@@H](C)COC(=O)Nc1ccc(S(=O)(=O)C(C)C)c(c1)CN(C)C(=O)[C@@H]2Nc1ccc2c(N)ncc(F)c2c1.O=C(O)C(F)(F)F
[b] Cc1cc2ccc1[C@@H](C)COC(=O)Nc1ccc(S(=O)(=O)C(C)(C)C)c(c1)CN(C)C(=O)[C@@H]2Nc1ccc2c(N)nccc2c1.O=C(O)C(F)(F)F (stereo in doubt)
[c] Cc1cc2ccc1[C@@H](C)COC(=O)Nc1ccc([C@@H](CC(F)F)C(=O)O)c(c1)CN(C)C(=O)[C@@H]2Nc1ccc2c(N)ncc(F)c2c1.O=C(O)C(F)(F)F
[in] I would appreciate it if you could sort these 3 molecules by Ki(HK1)/Ki(FVIIa), starting from the smallest number. Kindly provide the labels arranged according to the requested ordering.
[out] c, a, b
(c: 356, a: 583, b: 2516)

====

target: human FVIIa (Homo sapiens (Human)); assay: FVIIa Ki (37° C.), FVIIa-Xase assay; assay type: biochemical; details: read-out: FVIIa Ki, nM 37° C.
observed property: Ki (nM)

Example compounds with recorded Ki:
[
  {
    "compound": "Cc1cc2ccc1[C@@H](C)COC(=O)Nc1cc(F)c(S(=O)(=O)C3CC3)c(c1)CN(C)C(=O)[C@@H]2Nc1cc2ccnc(N)c2cc1F.O=C(O)C(F)(F)F [Example 29]",
    "endpoint unit": "nM",
    "Ki": 0.17
  },
  {
    "compound": "Cc1cc2ccc1[C@@H](C)COC(=O)Nc1cc(F)c(S(=O)(=O)C(C)C)c(c1)CN(C)C(=O)[C@@H]2Nc1cc2ccnc(N)c2cc1F.O=C(O)C(F)(F)F [Example 34]",
    "endpoint unit": "nM",
    "Ki": 0.14
  },
  {
    "compound": "COC[C@H](C)S(=O)(=O)c1ccc2cc1CN(C)C(=O)[C@H](Nc1ccc3c(N)ncc(F)c3c1)c1ccc(c(C)c1)[C@@H](C)COC(=O)N2.O=C(O)C(F)(F)F [Example 6]",
    "endpoint unit": "nM",
    "Ki": 1.8
  },
  {
    "compound": "Cc1cc2ccc1[C@@H](C)COC(=O)Nc1ccc(C(=O)N3CCC3)c(c1)CN(C)C(=O)[C@@H]2Nc1ccc2c(N)nccc2c1.O=C(O)C(F)(F)F [Example 7]",
    "endpoint unit": "nM",
    "Ki": 1.2
  },
  {
    "compound": "Cc1cc2ccc1[C@@H](C)COC(=O)Nc1cc(F)c(O[C@@H]3CCOC3)c(c1)CN(C)C(=O)[C@@H]2Nc1ccc2c(N)nccc2c1.O=C(O)C(F)(F)F [Example 38]",
    "endpoint unit": "nM",
    "Ki": 0.05
  }
]

[P] COC[C@H](C)Oc1c(F)cc2cc1CN(C)C(=O)[C@H](Nc1ccc3c(N)nccc3c1)c1ccc(c(C)c1)[C@@H](C)COC(=O)N2.O=C(O)C(F)(F)F [Example 37]
[Q] Cc1cc2ccc1[C@@H](C)COC(=O)Nc1cc(F)c(S(=O)(=O)C3CC3)c(c1)CN(C)C(=O)[C@@H]2Nc1cc(F)c2c(N)nccc2c1.O=C(O)C(F)(F)F [Example 11]
[R] Cc1cc2ccc1[C@@H](C)COC(=O)Nc1cc(F)c(OC[C@H](O)C3CC3)c(c1)CN(C)C(=O)[C@@H]2Nc1ccc2c(N)nccc2c1.O=C(O)C(F)(F)F (stereo in doubt) [Example 21]
[S] Cc1cc2ccc1[C@@H](C)COC(=O)Nc1cc(F)c(O[C@@H]3COC[C@@H]3O)c(c1)CN(C)C(=O)[C@@H]2Nc1ccc2c(N)nccc2c1.O=C(O)C(F)(F)F [Example 27]
[T] Cc1cc2cc(C)c1C(F)(F)COC(=O)Nc1ccc(S(=O)(=O)C3CC3)c(c1)CN(C)C(=O)[C@@H]2Nc1ccc2c(N)nccc2c1.O=C(O)C(F)(F)F [Example 5]
[in] I would appreciate it if you could sort these 5 compounds by Ki, starting from the smallest number. Kindly provide the labels arranged according to the requested ordering.
[out] P, S, R, Q, T
(P: 0.14 nM, S: 0.23 nM, R: 0.34 nM, Q: 0.66 nM, T: 2 nM)

[A] Cc1cc2ccc1[C@@H](C)COC(=O)Nc1cc(F)c(OC[C@H](C)O)c(c1)CN(C)C(=O)[C@@H]2Nc1ccc2c(N)nccc2c1.O=C(O)C(F)(F)F [Example 17]
[B] CCN(Cc1nccs1)C(=O)c1ccc2cc1CN(C)C(=O)[C@H](Nc1ccc3c(N)nccc3c1)c1ccc(c(C)c1)[C@@H](C)COC(=O)N2.O=C(O)C(F)(F)F [Example 23]
[in] Could you tell me which of these two has the smaller Ki figure? First: A Second: B // respond with label for picked entry
[out] B

[A] CC[C@@H](C(=O)O)c1ccc2cc1CN(C)C(=O)[C@H](Nc1ccc3c(N)ncc(F)c3c1)c1ccc(c(C)c1)[C@@H](C)COC(=O)N2.O=C(O)C(F)(F)F [Example 13]
[B] Cc1cc2ccc1[C@@H](C)COC(=O)Nc1cc(F)c(O[C@H](C)CO)c(c1)CN(C)C(=O)[C@@H]2Nc1ccc2c(N)nccc2c1.O=C(O)C(F)(F)F [Example 30]
[in] # argmax over Ki for candidates A and B // respond with label for picked entry
[out] A

[P] Cc1cc2ccc1[C@@H](C)COC(=O)Nc1cc(F)c(O[C@H]3CCOC3)c(c1)CN(C)C(=O)C2Nc1ccc2c(N)nccc2c1.O=C(O)C(F)(F)F (stereo partly drawn) [Example 39]
[Q] Cc1cc2ccc1[C@@H](C)COC(=O)Nc1ccc([C@@H](CC(F)F)C(=O)O)c(c1)CN(C)C(=O)[C@@H]2Nc1ccc2c(N)ncc(F)c2c1.O=C(O)C(F)(F)F [Example 10]
[R] Cc1cc2ccc1[C@@H](C)COC(=O)Nc1cc(F)c(O[C@@H](C)CO)c(c1)CN(C)C(=O)[C@@H]2Nc1ccc2c(N)nccc2c1.O=C(O)C(F)(F)F [Example 33]
[S] CC(C)S(=O)(=O)c1ccc2cc1CN(C)C(=O)[C@H](Nc1cc(F)c3c(N)nccc3c1)c1ccc(cc1)CCOC(=O)N2 [Comparator 1, reference compound]
[T] Cc1cc2cc(C)c1CC(O)CC(=O)Nc1ccc(S(=O)(=O)C3CC3)c(c1)CN(C)C(=O)[C@@H]2Nc1ccc2c(N)ncc(F)c2c1.O=C(O)C(F)(F)F (stereo partly drawn) [Example 2]
[in] I would appreciate it if you could sort these 5 compounds by Ki, starting from the smallest number. Kindly provide the labels arranged according to the requested ordering.
[out] P, R, Q, T, S
(P: 0.02 nM, R: 0.14 nM, Q: 0.9 nM, T: 2.3 nM, S: 38 nM)
